Reported apparent Kd values are given for each entry in this list.
Tested on: MS2 coat protein
experiment-summary: apparent Kd, MS2 coat protein; higher = weaker binding; RNA-MaP array
recorded-conditions: designed as: ON switch for flavin mononucleotide; no ligand
Give just the number in µM; leave the unit off.

Before answering, review these 2 worked examples.
>>> val("AAACAUGAGGAUCACCCAUGUAGAAUAAUCAGACGUUUGAACAGAAGGUGAAAACAAAUAAAACUCAAGGAUAUGUAACUAAAA")
0.0656
>>> val("ACAUGAGGAUCACCCAUGUCCUAAAAUGAGGCGAAUACGGCCAAGGAUAUUGGAACAACAGAAGUCAAGAAGGUGGCUAAAUUA")
0.0567

Entry "AUACAAGCAAUGGAGGAUAUCGCAGAAAUCACAUGAGGAUCACCCAUGUCUUACCGUAUGUCGAGCGAGAAGGCCACGGUGCGAGU" , apparent Kd reported as 0.0355

Entry "CUAAAACAUGAGGAUCACCCAUGUGUUUAGCGCAGAGGAUAUUGGGAUUGGUUGCUCGCUCAAGAAGGCUGAUUGG" , apparent Kd reported as 0.00855

Entry "ACUAGGGACCUGACAUGAGGAUCACCCAUGUUCUCGGAUCACAAGGAUAUCCGCACGUACCUGUGGGAGAAGGUGUCGUCCCAC" , apparent Kd reported as 0.026
